- protocol: Cytotoxicity against Homo sapiens (human) CNS cancer cells after 48 hr by SRB assay
- Format: functional
- measurement-parameters: Cancer cell lines
This listing pairs compounds with measured GI50.
quantity-name: GI50 (µM)

CC(=O)NS(=O)(=O)c1ccc(-n2nc(-c3ccccc3)cc2-c2cc(O)ccc2O)cc1; 90.4
CC1=NN(c2ccc(Br)cc2)C(=O)C1CC(=O)c1cc(O)ccc1O (stereo not drawn); 25.8
COc1ccc(OC)c(-c2cc(-c3ccccc3)nn2-c2ccc(S(N)(=O)=O)cc2)c1; 15
Cc1nn(-c2ccc(Br)cc2)c(C)c1CC(=O)c1cc(O)ccc1O; 11.3
NS(=O)(=O)c1ccc(-n2nc(-c3ccc(Cl)cc3)cc2C2=CC(=O)C=CC2=O)cc1; 23.7
COc1ccc(OC)c(-c2cc(-c3ccc(Cl)cc3)nn2-c2ccc(S(=O)(=O)NC(C)=O)cc2)c1; 19.4
CC(=O)NS(=O)(=O)c1ccc(-n2nc(-c3ccc(Cl)cc3)cc2-c2cc(O)ccc2O)cc1; 38.5
COc1ccc(OC)c(-c2cc(-c3ccccc3)nn2-c2ccc(S(=O)(=O)NC(C)=O)cc2)c1; 18.1
O=C(CC1C(=O)NN(c2ccc(Br)cc2)C1=O)c1cc(O)ccc1O (stereo not drawn); 18.8
COc1ccc(OC)c(-c2cc(-c3ccc(Cl)cc3)nn2-c2ccc(S(N)(=O)=O)cc2)c1; 16.2
COc1ccc(OC)c(-c2cc(-c3ccc(Cl)cc3)nn2-c2ccccc2)c1; 29.2
Cc1ccc(-c2cc(C3=CC(=O)C=CC3=O)n(-c3ccc(S(N)(=O)=O)cc3)n2)cc1; 65.3
NS(=O)(=O)c1ccc(-n2nc(-c3ccccc3)cc2-c2cc(O)ccc2O)cc1; 86.6
